target or system: T1, recombinantly expressed purified soluble WNV E protein (strain 382-99) (West Nile virus strain 382-99, UniProt Q9Q6P4 291-696)
T1 construct: also called recombinant WNV-E protein; truncated E protein; not shown: Myc tag and His tag
T1 sequence: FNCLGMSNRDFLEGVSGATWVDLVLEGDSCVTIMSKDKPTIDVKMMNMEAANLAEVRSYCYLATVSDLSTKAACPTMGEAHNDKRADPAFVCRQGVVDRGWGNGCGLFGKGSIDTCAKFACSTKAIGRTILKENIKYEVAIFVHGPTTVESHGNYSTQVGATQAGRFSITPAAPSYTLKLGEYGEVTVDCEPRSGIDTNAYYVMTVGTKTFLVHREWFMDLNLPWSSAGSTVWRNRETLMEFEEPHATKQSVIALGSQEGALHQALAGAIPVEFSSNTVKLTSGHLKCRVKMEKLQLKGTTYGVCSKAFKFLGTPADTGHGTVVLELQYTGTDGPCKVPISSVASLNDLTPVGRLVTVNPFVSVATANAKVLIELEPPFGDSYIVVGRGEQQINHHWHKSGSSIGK
test description: phage ELISA, coated recombinant soluble WNV E protein
The following binders are shown together with reported OD 492 nm values.
Please reply with the bare figure in OD 492 nm and do not write the unit itself.

// solved cases for OD 492 nm follow
1) SC04-361 (scFv) scFv: EVQLVQSGAEVKKPGESLKISCKASGFSFSTYWIGWVRQMPGKGLEWMGIIYPADSDTRYSPSFQGQVTISADKSISTAYLQWSSLKASDTAMYYCARLRGPYYDFWNGYRETHDAFNVWGQGTMVTVSSGTGGSGGTGSGTGGSTDVVMTQSPDSLAVSLGERATINCKSSQNILDNSDNKNFLAWYQQKPGQPPKLLIYWASARESGVPDRFSGSGSGTDFTLTISSLQAEDVALYYCQQYYNTPITFGQGTRLEIKR    0.076
2) SC04-353 (scFv) scFv: EVQLVQSGGGVVQPGRSLRLSCAASGFTFSNYAMHWVRQAPGKGLEWVAVISYDGGNKYYADSVKGRFTMSRDNSKNTLYLQMNSLRAEDTAVYYCARDFWSGYSMVDSYYYYMDVWGKGTTVTVSSGTGGSGGTGSGTGGSTETTLTQSPGTLSLSPGERATLSCRASQSVSNTFLAWYQQKPGQAPRLLIYGASSRATGIPDRFSGSGSGTDFTLTISRLEPEDFAAYYCQQYGSSLTFGPGTKVDIKR    0.099

Now consider the entry below.
OD 492 nm reading for SC04-271 (scFv) scFv: EVQLVETGAEVKKPGESLRISCKGSGYTFNNYWIGWVRQMPGKGLEWMGIIYPGDSDTRYSPSVQGHVTISADKSINTAYLQWSSLKASDTAVYYCARRPGYDYGFYYFDYWGQGTLVTVSSGTGGSGGTGSGTGGSTQSALTQPRSVSGSPGQSVTISCTGTSSDVGGYNYVSWYQHHPGKAPKLMIYDVSNRPLGVSNRFSGSKSGNTASLTISGLQAEDEADYYCSSYTSSSTYVFGTGTHLTVLS : 0.608
